Molecular target: human melanocortin-4 receptor (human) (UniProt P32245)
Sequence (P32245 whole entry): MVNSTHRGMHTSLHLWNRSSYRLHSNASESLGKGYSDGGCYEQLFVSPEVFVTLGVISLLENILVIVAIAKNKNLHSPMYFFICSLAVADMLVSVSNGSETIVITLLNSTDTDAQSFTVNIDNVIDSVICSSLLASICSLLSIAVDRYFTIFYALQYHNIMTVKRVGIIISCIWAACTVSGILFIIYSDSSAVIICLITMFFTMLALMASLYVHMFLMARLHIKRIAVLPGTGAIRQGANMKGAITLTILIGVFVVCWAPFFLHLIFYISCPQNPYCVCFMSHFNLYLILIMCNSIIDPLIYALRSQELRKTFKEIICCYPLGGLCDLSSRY
Assay: competition with [125I]-NDP-alpha-MSH, CHO-K1 cell membranes
Exercise: for every item that follows, state its recorded pKi.
Give bare numbers, as −log10 of the molar value.

For each entry beneath this line, provide reported pKi.
1. cyclo[Hydantoin(C(O)-(Glu-D-Ala))-His-D-Phe-Arg-Trp-Dap]-NH2 (peptide)
2. cyclo[Hydantoin(C(O)-(Asp-D-Ala))-His-D-Phe-Arg-Trp-Dap]-NH2 (peptide)
3. cyclo[Hydantoin(C(O)-(Asp-Apc))-D-2-Nal-Arg-Trp-Lys]-NH2 (peptide)
4. cyclo[Hydantoin(C(O)-(Glu-D-Ala))-His-D-Phe-Arg-Trp-Dab]-NH2 (peptide)
5. Hydantoin(C(O)-(D-Arg-Gly))-cyclo(Cys-Glu-His-D-Phe-Arg-Trp-Cys)-NH2 (peptide)
6. cyclo[Hydantoin(C(O)-(Asp-A3c))-D-2-Nal-Arg-Trp-Lys]-NH2 (peptide)
7. Hydantoin(C(O)-(Nle-Gly))-cyclo(Cys-D-Ala-His-D-Phe-Arg-Trp-Pen)-NH2 (peptide)
8. Hydantoin(C(O)-(Gly-D-Arg))-cyclo(Cys-Glu-His-D-Phe-Arg-Trp-Cys)-NH2 (peptide)

1: 8.30; 2: 7.70; 3: 6.58; 4: 7.90; 5: 8.53; 6: 6.38; 7: 8.45; 8: 8.75

For every listed record, write down its pKi.
1. cyclo[Hydantoin(C(O)-(Asp-A6c))-D-2-Nal-Arg-Trp-Lys]-NH2 (peptide)
2. cyclo[Hydantoin(C(O)-(Asp-Aic))-D-2-Nal-Arg-Trp-Lys]-NH2 (peptide)
3. cyclo[Hydantoin(C(O)-(Asp-D-Ala))-His-D-Phe-Arg-Trp-Orn]-NH2 (peptide)

1. 7.78
2. 7.45
3. 8.11

Reported pKi for cyclo[Hydantoin(C(O)-(Glu-D-Ala))-His-D-Phe-Arg-Trp-Orn]-NH2 (peptide) was 7.28

---

For each of the substances below, state its EC50, intracellular cyclic AMP (cAMP) levels.
Biological target: human melanocortin-3 receptor (human)
Test: cell-based or functional assay
One number for each entry, in nM.

Example entries and their recorded answers appear below.
SUBSTANCE	TARGET_OR_SYSTEM	ENDPOINT_RESULT
cyclo[Hydantoin(C(O)-(Glu-D-Ala))-His-D-Phe-Arg-Trp-Dap]-NH2 (peptide; unit assumed)	human melanocortin-3 receptor (human)	18.2
cyclo[Hydantoin(C(O)-(Glu-D-Ala))-His-D-Phe-Arg-Trp-Orn]-NH2 (peptide; unit assumed)	human melanocortin-3 receptor (human)	39.2
cyclo[Hydantoin(C(O)-(Asp-D-Ala))-His-D-Phe-Arg-Trp-Orn]-NH2 (peptide)	human melanocortin-3 receptor (human)	88.6
Hydantoin(C(O)-(D-Arg-Gly))-cyclo(Cys-Glu-His-D-Phe-Arg-Trp-Cys)-NH2 (peptide; unit assumed)	human melanocortin-3 receptor (human)	17.1
cyclo[Hydantoin(C(O)-(Asp-D-Ala))-His-D-Phe-Arg-Trp-Dap]-NH2 (peptide; unit assumed)	human melanocortin-3 receptor (human)	49.3
Hydantoin(C(O)-(Gly-D-Arg))-cyclo(Cys-Glu-His-D-Phe-Arg-Trp-Cys)-NH2 (peptide; unit assumed)	human melanocortin-3 receptor (human)	10.3

API: the following record is the query input.
Tested system human melanocortin-3 receptor (human); EC50, intracellular cyclic AMP (cAMP) levels recorded for Hydantoin(C(O)-(Nle-Gly))-cyclo(Cys-D-Ala-His-D-Phe-Arg-Trp-Pen)-NH2 (peptide; unit assumed) was 21.5

---

Record form. Attribute: EC50, intracellular cyclic AMP (cAMP) levels. Fill in for each entry.
Biological target: human melanocortin-5 receptor (human) (UniProt P33032)
Sequence (P33032 whole entry): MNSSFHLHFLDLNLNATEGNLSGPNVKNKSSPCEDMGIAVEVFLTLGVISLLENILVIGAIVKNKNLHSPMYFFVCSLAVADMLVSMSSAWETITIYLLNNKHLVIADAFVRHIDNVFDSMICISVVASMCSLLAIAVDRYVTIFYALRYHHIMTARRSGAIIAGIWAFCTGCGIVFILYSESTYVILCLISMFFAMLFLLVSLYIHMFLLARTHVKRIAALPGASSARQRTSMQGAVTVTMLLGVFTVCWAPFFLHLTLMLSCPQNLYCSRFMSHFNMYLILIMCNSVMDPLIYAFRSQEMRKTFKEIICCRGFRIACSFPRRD
Assay: cell-based or functional assay

Below are some substances; for each one, tell me its EC50, intracellular cyclic AMP (cAMP) levels.
1. Hydantoin(C(O)-(Gly-D-Arg))-cyclo(Cys-Glu-His-D-Phe-Arg-Trp-Cys)-NH2 (peptide; unit assumed)
2. cyclo[Hydantoin(C(O)-(Asp-D-Ala))-His-D-Phe-Arg-Trp-Orn]-NH2 (peptide; unit assumed)
3. cyclo[Hydantoin(C(O)-(Glu-D-Ala))-His-D-Phe-Arg-Trp-Dap]-NH2 (peptide; unit assumed)
4. Hydantoin(C(O)-(D-Arg-Gly))-cyclo(Cys-Glu-His-D-Phe-Arg-Trp-Cys)-NH2 (peptide; unit assumed)

1. 7.44 µM
2. 9.3 µM
3. > 10 µM
4. 2.71 µM

Reported EC50, intracellular cyclic AMP (cAMP) levels of Hydantoin(C(O)-(Nle-Gly))-cyclo(Cys-D-Ala-His-D-Phe-Arg-Trp-Pen)-NH2 (peptide; unit assumed) : 0.352 µM
